target: Proteasome Macropain subunit MB1 (Homo sapiens) (UniProt P28074); assay: Inhibition of human 20S constitutive proteasome beta-5 at 50 uM using Suc-LLVY-AMC as substrate incubated for 15 mins measured for 45 mins by fluorescence assay relative to control
Sequence (P28074 whole entry): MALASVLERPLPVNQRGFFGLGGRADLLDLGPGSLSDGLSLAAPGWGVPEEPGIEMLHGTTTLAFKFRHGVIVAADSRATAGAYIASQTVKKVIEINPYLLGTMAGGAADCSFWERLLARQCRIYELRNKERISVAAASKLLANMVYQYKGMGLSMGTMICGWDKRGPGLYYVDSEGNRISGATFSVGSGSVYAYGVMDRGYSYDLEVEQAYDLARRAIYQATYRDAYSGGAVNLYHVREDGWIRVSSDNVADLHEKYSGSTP
measurement-type: inhibition

Solved entries (count: 5):
>>> readout_value("C[C@H](O)[C@@H](NC(=O)OCc1ccccc1)C(=O)N[C@@H](C[C@]1(O)C(=O)Nc2ccccc21)C(=O)NCc1ccccc1")
"> 85%"
>>> readout_value("C[C@H](NC(=O)[C@H](Cc1ccc(OCc2ccccc2)cc1)NC(=O)OC(C)(C)C)C(=O)N[C@@H](C[C@]1(O)C(=O)Nc2ccccc21)C(=O)NCC(C)(C)C")
"> 85%"
>>> readout_value("C[C@H](NC(=O)[C@H](Cc1ccc(OCc2ccccc2)cc1)NC(=O)OC(C)(C)C)C(=O)N[C@@H](C[C@@]1(O)C(=O)N(C)c2ccccc21)C(=O)NCc1ccccc1")
"> 85%"
>>> readout_value("C[C@H](NC(=O)[C@H](Cc1ccc(OCc2ccccc2)cc1)NC(=O)OC(C)(C)C)C(=O)N[C@@H](C[C@]1(O)C(=O)Nc2ccccc21)C(=O)NC(c1ccccc1)c1ccccc1")
"> 85%"
>>> readout_value("C[C@H](O)[C@@H](NC(=O)[C@H](Cc1ccc(OCc2ccccc2)cc1)NC(=O)OC(C)(C)C)C(=O)N[C@@H](C[C@]1(O)C(=O)Nc2ccccc21)C(=O)NCc1ccccc1")
"> 85%"

Shift focus to the following entry.
The compound listed as `CC(C)(C)OC(=O)N[C@@H](Cc1ccc(OCc2ccccc2)cc1)C(=O)N[C@@H](CC(N)=O)C(=O)N[C@@H](C[C@]1(O)C(=O)Nc2ccccc21)C(=O)NCc1ccccc1` has a reported inhibition of > 85%

The measurements presented in this section are drawn from ChEMBL document CHEMBL4251654.
